- tested_target: T1, MPDZ_10, O75970
- T1 sequence (O75970 1624-1722, limits assumed, looked up): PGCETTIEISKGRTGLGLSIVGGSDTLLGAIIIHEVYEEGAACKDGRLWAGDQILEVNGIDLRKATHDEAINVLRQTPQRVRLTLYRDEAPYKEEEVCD
- experiment_description: holdup assay
- Parameters: key: below the threshold = too weak to quantify, mostly under pKd 3.1 to 4
- details: plain residues with an end cap or a label only (N-terminal biotin on a linker: ado-ado)
metric_name: pKd

Some binders with recorded pKd:
binder	metric_name	result
QLSFNTDTLC [ABCA2, Q9BZC7]	pKd	below the threshold
DTKNYKQTSV [CRIPT, Q9P021]	pKd	3.98
SLNANEVEWF [RNF130, Q86XS8]	pKd	below the threshold
NIAESLESLV [PTPRZ1, P23471]	pKd	below the threshold
RFQQRMQTHV [KIRREL1, Q96J84]	pKd	below the threshold
KKMLQRRTLL [OR8G1, Q15617]	pKd	below the threshold

Then there is this binder:
Exercise: GET /values?readout=pKd&item= KRPEMTSSSV [MUC3A, MUC3B, Q02505;Q9H195]
Solution: 3.73
